# Assay text: NCI Yeast Anticancer Drug Screen. Data for the rad50 strain (AID 155);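 note: 0% = growth of vehicle-only cultures of the same strain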
# Settings: S. cerevisiae rad50 strain growth inhibition; at 50.0 µM; active compounds read high
# Procedure: Growth inhibition of yeast strains with defined genetic alterations is measured as a screen for potential anti-cancer activity. Selected strains with alterations in DNA damage repair or cell cycle control were exposed to compounds and growth inhibition was measured relative to vehicle treated controls. The strain used in this assay is rad50
The panel holds about 79,000 compounds, 15% with a hit somewhere; the sample as a whole holds those more often.
Assay readout: growth inhibition (%)
Write the number in % without appending the unit.

Solved entries (count: 3):
IN: Value lookup for growth inhibition; key = OC(OC/C(I)=C(/I)COC(O)C(Cl)(Cl)Cl)C(Cl)(Cl)Cl (centres undefined)
OUT: 97.2

IN: Value lookup for growth inhibition; key = N#Cc1cccc(C[P+](c2ccccc2)(c2ccccc2)c2ccccc2)c1
OUT: 78.3

IN: Value lookup for growth inhibition; key = C(=C\c1ccc(-[n+]2nc(-c3ccccc3)nn2-c2ccccc2)cc1)/c1ccccc1
OUT: 91.5

Next:
IN: Value lookup for growth inhibition; key = COC(=O)CCC(=O)c1ccc2c(c1)CC1(Cc3ccccc3C1)C2
OUT: 14.4

IN: Value lookup for growth inhibition; key = O=C(CCc1ccccc1)COC(=O)c1ccc([N+](=O)[O-])cc1
OUT: -10.4

IN: Value lookup for growth inhibition; key = CN(/N=C/c1ccc(C(=O)O)cc1)C1=NCCCCN1
OUT: 5.85

IN: Value lookup for growth inhibition; key = CCCCCCCCCC(C)CC(=O)NCCCN(C)CCCCN(C)C (centres undefined) (tested in a mixture with another compound)
OUT: 88.8

IN: Value lookup for growth inhibition; key = CSC(SC)C(SC)SC
OUT: 1.65

---

# Assay text: NCI Yeast Anticancer Drug Screen. Data for the bub3 strain (AID 167)
# Settings: S. cerevisiae bub3 mutant strain, at 5.0 µM (retest, dose inferred, filed as 0.5)
About 79,000 compounds went through this panel and 15% of them were active in at least one assay; those are over-represented in the sample as a whole. The source made the active and inactive calls. Rule as the data show it: active = growth inhibition above about 70%; inactive = the rest.
Result category, one only: True (active), False (inactive)

Please review the entries below; each comes with its answer.
IN: Call for entry Cc1cc(S(=O)(=O)Nc2n[nH]c(-c3ccccn3)n2)c(S)cc1Cl :
OUT: False

IN: Call for entry CC(=O)O[C@@H]1CO[C@H]2O[C@H]3[C@@H](C(C=O)=C[C@H](O)[C@@H]4C5=C(C(C)C)CC[C@]5(C)CC[C@@]34C)[C@@]2(O)C1=O :
OUT: True

Next:
IN: Call for entry O=C1c2ccccc2-c2nnc3c(c21)Cc1ccccc1C3 :
OUT: False

---

# Assay text: NCI Yeast Anticancer Drug Screen. Data for the rad50 strain (AID 155);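 note: 0% = growth of vehicle-only cultures of the same strain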
# Settings: S. cerevisiae rad50 strain growth inhibition; at 50.0 µM (retest, dose inferred, filed as 5.0); active compounds read high
About 79,000 compounds went through this panel and 15% of them were active in at least one assay; those are over-represented in the sample as a whole.
Assay readout: growth inhibition (%)
Write the number in % without appending the unit.

Solved entries (count: 5):
IN: Value lookup for growth inhibition; key = COc1ccc2nc(NC(=O)Nc3c(Cl)cccc3Cl)sc2c1
OUT: 99

IN: Value lookup for growth inhibition; key = [O-]c1c2cc(-[n+]3c(-c4ccccc4)cc(-c4ccccc4)cc3-c3ccccc3)cc1CO[C@@H](c1ccccc1)[C@H](c1ccccc1)OCc1cccc(n1)CO[C@@H](c1ccccc1)[C@H](c1ccccc1)OC2
OUT: 96

IN: Value lookup for growth inhibition; key = CC(CCC(=O)O)[C@H]1CCC2[C@@H]3CC(O)[C@@H]4CC(O)CC[C@]4(C)C3CC[C@@]21C (stereo partly specified)
OUT: 44

IN: Value lookup for growth inhibition; key = CCOC(=O)C(NS(=O)(=O)c1ccccc1)(C(F)(F)F)P(=O)(OCC(C)C)OCC(C)C (stereo unspecified)
OUT: -2

IN: Value lookup for growth inhibition; key = N#CSCCl
OUT: 42

Next:
IN: Value lookup for growth inhibition; key = N#CCN1CCCCCc2ccccc21
OUT: -3

IN: Value lookup for growth inhibition; key = COc1ccc(NS(=O)(=O)c2ccc(N=Cc3c4ccccc4nc4cc(Cl)ccc34)cc2)nn1
OUT: -9

IN: Value lookup for growth inhibition; key = C1=C(c2ccccc2)C(=Nc2ccccc2)SC1=Nc1ccccc1
OUT: 100

IN: Value lookup for growth inhibition; key = COc1ccc(-c2cc(C(=O)O)c3cccc(C(F)(F)F)c3n2)cc1
OUT: 85

IN: Value lookup for growth inhibition; key = Nc1ccc2nc3ccccc3nc2c1
OUT: 95

IN: Value lookup for growth inhibition; key = O=C1OC(c2ccc(O)cc2)Sc2ccccc21 (stereo unspecified)
OUT: 66

IN: Value lookup for growth inhibition; key = O=S(=O)(Nc1ccccc1)c1ccccc1C(O)(c1ccccc1)c1ccccc1
OUT: 71

IN: Value lookup for growth inhibition; key = C/C(=N\NC(=S)N/N=C(\C)c1ccccn1)c1ccccn1
OUT: 99

IN: Value lookup for growth inhibition; key = O=C(N/C(=C\c1nc2ccccc2s1)c1ccccc1O)c1ccccc1
OUT: 68

IN: Value lookup for growth inhibition; key = CC(C)C1=CC(=O)C(C)(C2C(O)CC3(C)C4CC=C5C(CCC(O)C5(C)C)C4(C)C(=O)CC23C)O1 (stereo unspecified)
OUT: 80

IN: Value lookup for growth inhibition; key = COC1OC(CO)C(O)C(OC(=O)c2ccc([N+](=O)[O-])cc2)C1OS(=O)(=O)c1ccc(C)cc1 (stereo unspecified)
OUT: 0

IN: Value lookup for growth inhibition; key = Cc1cc(O)c2c(c1)OC1(C)CCC3C(C)(C)CCCC34COC2C14 (stereo unspecified)
OUT: 97

IN: Value lookup for growth inhibition; key = O=[N+]([O-])c1ccccc1Oc1ccc([N+](=O)[O-])c(C(F)(F)F)c1
OUT: 83

IN: Value lookup for growth inhibition; key = CN(C)CC1(C)CC/C(=C\c2ccc(Cl)cc2)C1=O (stereo unspecified)
OUT: 28

IN: Value lookup for growth inhibition; key = Cc1nn(C(=O)c2ccccc2O)c2c1C(c1ccc([N+](=O)[O-])cc1)SC(N)=N2 (stereo unspecified)
OUT: 81

IN: Value lookup for growth inhibition; key = CC(C)Cc1cc2c(cc1O)CCC1C2CC[C@@]2(C)C1CC[C@@H]2O (stereo partly specified)
OUT: 97

IN: Value lookup for growth inhibition; key = CN(C)N=Nc1ccc(NC(N)=O)cc1
OUT: 78

---

# Assay text: NCI Yeast Anticancer Drug Screen. Data for the mec2-1 strain (AID 157)
# Settings: S. cerevisiae mec2-1 strain, at 50.0 µM (retest, dose inferred, filed as 5.0), active compounds read high
This is part of a sample that, as a whole, favours compounds with a hit. Of some 79,000 tested, about 15% had one in any assay.
Assay readout: growth inhibition (%)
Write the number in % without appending the unit.

Solved entries (count: 3):
IN: Value lookup for growth inhibition; key = CN1C(=O)C23SSC1(C)C(=O)N2c1ccccc1C3(C)C (stereo not drawn)
OUT: 96

IN: Value lookup for growth inhibition; key = CCOC(=O)C(NC(=O)c1ccccc1)[CH](c1ccc(OC)cc1)[Sn]([c]1ccccc1)([c]1ccccc1)[c]1ccccc1 (stereo not drawn)
OUT: 91

IN: Value lookup for growth inhibition; key = Cc1cccc(/C=N\OCCc2ccccc2)n1
OUT: 53

Next:
IN: Value lookup for growth inhibition; key = N=c1n(CC(=O)NC23CC4CC(CC(C4)C2)C3)c2ccccc2n1CC(=O)NC12CC3CC(CC(C3)C1)C2
OUT: 8

IN: Value lookup for growth inhibition; key = C=C1CC2(OC1=O)C(=O)N(C)c1ccccc12 (stereo not drawn)
OUT: 52

IN: Value lookup for growth inhibition; key = CCOc1ccc2c(c1)[n+]([O-])c(-c1ccc([N+](=O)[O-])cc1)c(N)[n+]2[O-]
OUT: 90

IN: Value lookup for growth inhibition; key = CC(C=O)=C(c1ccccc1)c1ccccc1
OUT: -56

IN: Value lookup for growth inhibition; key = C=Cc1cc(O)cc2c1-c1ccc(O)c(C)c1CC2
OUT: 100

---

# Assay text: NCI Yeast Anticancer Drug Screen. Data for the cln2 rad14 strain (AID 165);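 note: 0% = growth equal to vehicle treated cultures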
# Settings: S. cerevisiae cln2 rad14 strain, at 50.0 µM (retest, dose inferred, filed as 5.0)
Compounds without any hit were thinned out: in the full panel of roughly 79,000, 15% have a hit. Active and inactive are the calls of the source. Rule as the data show it: active = growth inhibition above about 70%; inactive = the rest.
Result category, one only: 1 for active, 0 for inactive

Please review the entries below; each comes with its answer.
IN: Call for entry O=C1c2cc([N+](=O)[O-])cc3cc([N+](=O)[O-])cc(c23)C(=O)N1CCNCCN1C(=O)c2cc([N+](=O)[O-])cc3cc([N+](=O)[O-])cc(c23)C1=O :
OUT: 1

IN: Call for entry Cc1cc(N(CCC#N)CCC#N)ccc1/C(Sc1ccccc1)=C(\NC(=O)/C=C/c1ccccc1)C(=O)Sc1ccccc1 :
OUT: 0

Next:
IN: Call for entry O=C1C=CC(=O)N1Cc1ccccc1 :
OUT: 1

IN: Call for entry CCCCCCCCCCCCCCCC1(OC)C[N+](C)(C)CCO1 (stereo not drawn) :
OUT: 1

IN: Call for entry O=c1onc(-c2ccc(Cl)cc2)c2ccccc12 :
OUT: 0

IN: Call for entry CC(=O)OCCCCCCCCCCCCCCO :
OUT: 1
